experiment: microbe, parasite or virus in culture; conditions: Mycobacterium tuberculosis, 72 h, read-out: pIC50 (converted)
IC50 strictly under 100 µM means TRUE; at 100 µM or over means FALSE.

{"molecule": "CCOC(=O)c1ccccc1N1C(=O)C=CC1=O", "class_assignment": "TRUE"}
{"molecule": "Cc1ccc(NCc2ncc(C(C)(C)C)o2)c(Cl)c1", "class_assignment": "TRUE"}
{"molecule": "CC(NC(=O)CNc1ccccc1F)c1ccco1 (stereo unspecified)", "class_assignment": "TRUE"}
{"molecule": "Cc1nc(C2CN(Cc3ccc(F)cc3Br)CCO2)no1 (stereo unspecified)", "class_assignment": "TRUE"}
{"molecule": "NC(=O)C1CCN(CCOc2ccc(Br)cc2)C1 (stereo unspecified)", "class_assignment": "FALSE"}
{"molecule": "Cc1cc(CNc2ccc(C(F)(F)F)cc2)no1", "class_assignment": "TRUE"}
{"molecule": "O=C(c1cc(-c2ccco2)cs1)N1CCCC1", "class_assignment": "TRUE"}
{"molecule": "COc1ccc2c(c1)OCC(CNC(=O)CN(C)C)C2 (stereo unspecified)", "class_assignment": "FALSE"}
{"molecule": "OCC(Nc1ncccc1Br)c1ccccc1 (stereo unspecified)", "class_assignment": "FALSE"}
{"molecule": "COCC(=O)N1CCC2(CC1)OCCO2", "class_assignment": "FALSE"}
{"molecule": "O=C(COc1ncccn1)Nc1ccc(F)cc1F", "class_assignment": "FALSE"}
{"molecule": "NC(=O)C(N)c1ccc2c(c1)OCCO2 (stereo unspecified)", "class_assignment": "FALSE"}
{"molecule": "CC(C)c1cc(C(=O)N2CC(c3ccccn3)C2)no1", "class_assignment": "TRUE"}
{"molecule": "O=C(CC1Sc2ccc(Cl)cc2NC1=O)OCCO (stereo unspecified)", "class_assignment": "FALSE"}
{"molecule": "Cn1cc(CC(=O)Nc2ccc(I)cn2)cn1", "class_assignment": "FALSE"}
{"molecule": "CC(NC(=O)CNc1cc(F)cc(Br)c1)C(=O)N(C)C (stereo unspecified)", "class_assignment": "FALSE"}
{"molecule": "Cc1cccc(C(=O)NCc2cccc(O)c2)n1", "class_assignment": "FALSE"}
{"molecule": "COc1cccc(S(=O)(=O)CCN(C)CCO)c1", "class_assignment": "FALSE"}
{"molecule": "CC(C)NC(=O)NC(C)c1ccccc1 (stereo unspecified)", "class_assignment": "FALSE"}
{"molecule": "NC(=O)C(NC(=O)c1sccc1Br)c1ccccc1 (stereo unspecified)", "class_assignment": "FALSE"}
{"molecule": "CCC(C(=O)N1CCC(N)CC1)c1ccccc1 (stereo unspecified)", "class_assignment": "FALSE"}
{"molecule": "COc1ccc(CN2C[C@H](O)[C@@H](N(C)C)C2)c(C)c1C", "class_assignment": "FALSE"}
{"molecule": "COc1c(F)cc(CN2CC[C@@H](N)[C@H](O)C2)cc1Cl", "class_assignment": "FALSE"}
{"molecule": "O=C(CC1C=CCC1)N1CCN(c2ccccn2)CC1 (stereo unspecified)", "class_assignment": "FALSE"}
{"molecule": "NC1(c2nc(-c3ccccc3)c[nH]2)CCCC1", "class_assignment": "FALSE"}
{"molecule": "CCCc1nc(N2CCCCCC2)c2c(n1)c(C)nn2CC", "class_assignment": "TRUE"}
{"molecule": "COc1ccc(CNC(=O)CCC2CCCO2)cn1 (stereo unspecified)", "class_assignment": "TRUE"}
{"molecule": "Clc1ccc(OCCc2cc(C3CCN(c4ncccn4)C3)n[nH]2)cc1 (stereo unspecified)", "class_assignment": "TRUE"}
{"molecule": "COc1cccc(CNCCNc2cccc(C)n2)c1", "class_assignment": "FALSE"}
{"molecule": "CC(C)Cc1cc(C(=O)N(C)Cc2cnccn2)on1", "class_assignment": "FALSE"}
{"molecule": "CS(=O)(=O)NCC1CCCN(c2ncc(Cl)cc2F)C1 (stereo unspecified)", "class_assignment": "FALSE"}
{"molecule": "CN(Cc1cccc(C(N)=O)c1)C(=O)c1occc1Br", "class_assignment": "FALSE"}
{"molecule": "Oc1cccc(CNc2cccnc2-n2cccn2)c1", "class_assignment": "FALSE"}
{"molecule": "CCN(C)C(=O)Nc1ccc(C(=O)OC)c(F)c1", "class_assignment": "FALSE"}
{"molecule": "CCN1CCN(c2ccccc2O)CC1", "class_assignment": "FALSE"}
{"molecule": "Cc1cccc(NCCC(=O)NC2CCCC2)n1", "class_assignment": "FALSE"}
{"molecule": "COc1ccnc(N2CCCNCC2)n1", "class_assignment": "FALSE"}

----------
test system: Plasmodium falciparum; assay: Calibr Malaria Delayed Death Assay SOP; format: functional, organism-based; settings: Plasmodium falciparum
pIC50: −log10 of the molar value.
Note to self: values exactly at 6 are yes. So pIC50 at or above 6 is yes, below is no.

{"compound": "Cl.Fc1ccccc1Cn1c(C2CCNCC2)cc2cccnc21", "class_assignment": "yes"}
{"compound": "CCN(CC1CN(Cc2nc(C3CC3)no2)CCO1)c1cccnn1 (centres undefined)", "class_assignment": "no"}
{"compound": "COc1cccc(CNCc2ccc(F)c(Cl)c2)c1O", "class_assignment": "yes"}
{"compound": "Cc1cc(C)c(CNCC(O)c2ccc(F)c(F)c2)c(C)c1.Cl (centres undefined)", "class_assignment": "yes"}
{"compound": "Clc1ccccc1C1(c2ccnc(CC3CC3)n2)CCNCC1", "class_assignment": "yes"}
{"compound": "COc1ccc2[nH]c(C[C@@H]3C[C@@H](C(C)C)[C@H](CN(C)C)C=C3C)nc2c1", "class_assignment": "yes"}
{"compound": "CN(Cc1ncc(C(C)(C)C)o1)CC1CCCN1c1cccnn1 (centres undefined)", "class_assignment": "no"}
{"compound": "Cc1ncc(CNCCO)c2cc(C(=O)c3ccc(Br)cc3)oc12.Cl", "class_assignment": "yes"}
{"compound": "NC1CCCCN(Cc2ccccc2CS(=O)(=O)c2ccccc2)C1 (centres undefined)", "class_assignment": "yes"}
{"compound": "Cc1ccc2[nH]c(-c3cn(C4CCNCC4)nn3)nc2c1C", "class_assignment": "yes"}
{"compound": "CN(C)CCn1nc(C2CCN(Cc3ccccc3)C2)c2cccnc21 (centres undefined)", "class_assignment": "no"}
{"compound": "NCC1[C@H]2CN(Cc3cccc(Cl)c3)C[C@@H]12 (some centres undefined)", "class_assignment": "yes"}
{"compound": "Fc1ccc(C2(CNC3=NCCN3)CCCC2)cc1.I", "class_assignment": "yes"}
{"compound": "Cc1noc(C)c1CNCc1ccccc1N(C)C1CCN(C)CC1", "class_assignment": "yes"}
{"compound": "CC(C)CNc1cc(-c2c[nH]nc2C2CCN(C(=O)C3CC3)C2)ccn1 (centres undefined)", "class_assignment": "yes"}

----------
Target: Coenzyme A biosynthesis bifunctional protein CoaBC (Mycobacterium tuberculosis (strain ATCC 25618 / H37Rv))
Sequence (P9WNZ1 whole entry): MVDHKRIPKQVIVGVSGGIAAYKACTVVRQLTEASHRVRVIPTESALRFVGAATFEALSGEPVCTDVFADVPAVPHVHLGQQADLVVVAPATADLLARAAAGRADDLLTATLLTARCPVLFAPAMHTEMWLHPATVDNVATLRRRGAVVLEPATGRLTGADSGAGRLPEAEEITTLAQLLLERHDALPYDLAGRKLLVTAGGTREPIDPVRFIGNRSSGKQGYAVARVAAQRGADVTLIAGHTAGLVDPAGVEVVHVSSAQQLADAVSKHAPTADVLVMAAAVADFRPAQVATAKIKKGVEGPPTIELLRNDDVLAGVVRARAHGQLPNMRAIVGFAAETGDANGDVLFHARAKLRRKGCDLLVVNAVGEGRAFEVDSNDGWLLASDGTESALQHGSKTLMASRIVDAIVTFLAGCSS
Assay: Biomol Green assay for MtCoaBC inhibitor, OD650 read
pIC50: −log10 of the molar value.

{"compound": "Cc1ccc2[nH]c(CO[C@H]3CN(c4ccc(C#N)cn4)C[C@H]3F)nc2c1", "pIC50": "< 4.30"}
{"compound": "Cc1noc(C)c1CN1CCn2cc(CNc3ccccn3)nc2C1", "pIC50": "< 4.52"}
{"compound": "CCn1cc(Cl)c(C(=O)NCCCN(C)C)n1", "pIC50": "< 4.52"}
{"compound": "CC(NCC1(N(C)C)CCOCC1)c1ccc(SC(F)F)cc1 (centres undefined)", "pIC50": "< 4.52"}

----------
Below, each entry is listed alongside its reported IC50.
experiment: microbe, parasite or virus in culture; conditions: Mycobacterium tuberculosis, 96 h, read-out: pIC50 (converted)

{"molecule": "COCCN1CCCN(C(=O)c2cc(Cl)c[nH]2)CC1", "IC50": "> 501 µM"}
{"molecule": "CCN(C(=O)CN1CCCC1Cc1ccccc1)c1ccccc1 (centres undefined)", "IC50": "> 50.1 µM"}
{"molecule": "COCCOCCNC(=O)C(C)Oc1ccccc1C(F)(F)F (centres undefined)", "IC50": "> 50.1 µM"}
{"molecule": "CCN1C[C@@H]2[C@@H](OC)CCN(C(=O)Cc3ccsc3)[C@@H]2C1", "IC50": "> 50.1 µM"}
{"molecule": "Cn1c2c(c(=O)n1C)CN(C(=O)c1ccco1)CCC2", "IC50": "> 50.1 µM"}
{"molecule": "Cc1cc(C)cc(OCCNC(=O)CSCC(N)=O)c1", "IC50": "> 501 µM"}
{"molecule": "CC(C)N(C)S(=O)(=O)N(Cc1cccs1)Cc1cccs1", "IC50": "> 50.1 µM"}
{"molecule": "O=C(Cc1cccnc1)NCCNc1cccc(Br)c1", "IC50": "> 501 µM"}
{"molecule": "O=C(NCc1cccnc1)C1COc2ccccc2O1 (centres undefined)", "IC50": "> 501 µM"}
{"molecule": "Cc1cc(Br)oc1C(=O)N1CCCN(C)CC1", "IC50": "> 501 µM"}
{"molecule": "N#CCCSc1nnc(Cc2ccccc2F)o1", "IC50": "> 50.1 µM"}
{"molecule": "CN(CCCOc1ccccc1)C(=O)c1csc(-c2nnc[nH]2)n1", "IC50": "> 50.1 µM"}
{"molecule": "O=C(CCn1cccc1)NCc1ccco1", "IC50": "> 501 µM"}
{"molecule": "CNC1CCN(C2CCN(c3ccc(-c4ccco4)cc3)CC2)CC1", "IC50": "> 50.1 µM"}
